Can you tell me Rat hepatocyte Fmax for the items I'm about to list?
# experiment-summary: In vitro metabolic stability in rat hepatocytes
# Format: in vitro ADME
# test-parameters: 1 μM, in vitro metabolic stability given as calculated maximal oral bioavailability
Record the value in %, omitting the unit from your answer.

Quick check: Rat hepatocyte Fmax of Cc1cnc(-c2cc(OC(C)C(C)O)cc(C(=O)N[C@H](C)c3cnc(C(F)(F)F)nc3)c2)s1 (single isomer, unassigned) [Example 163] ?
53

Quick check: Rat hepatocyte Fmax of `Cc1cnc(-c2cc(O[C@H]3CCOC3)cc(C(=O)N[C@H](C)c3cnc(C(F)(F)F)nc3)c2)s1` ?
56

Quick check: Rat hepatocyte Fmax of Cc1cnc(-c2cc(OC(C)C(C)O)cc(C(=O)N[C@H](C)c3cnc(C(F)(F)F)nc3)c2)s1 (single isomer, unassigned) [Example 340] ?
64

Quick check: Rat hepatocyte Fmax of Cc1cnc(-c2cc(OC(C)C(C)O)cc(C(=O)N[C@H](C)c3ccc(C(F)(F)F)nn3)c2)s1 (single isomer, unassigned) ?
43

Quick check: Rat hepatocyte Fmax of Cc1cnc(-c2cc(OC(C)C(C)O)cc(C(=O)N[C@H](C)c3cnc(C(F)(F)F)nc3)c2)s1 (single isomer, unassigned) [Example 339] ?
52

Quick check: Rat hepatocyte Fmax of `CCc1cnc(-c2cc(OC[C@H]3CN(C)CCO3)cc(C(=O)N[C@H](C)c3ccc(C(F)(F)F)nn3)c2)s1` ?
51

Quick check: Rat hepatocyte Fmax of `Cc1cnc(-c2cc(O[C@@H]3CCOC3)cc(C(=O)N[C@H](C)c3cnc(C(F)(F)F)nc3)c2)s1` ?
52

====

# experiment-summary: In vitro metabolic stability in liver microsomes (calculation of CL and Fmax)
# Assay type: in vitro ADME, human
# test-parameters: 1 μM, in vitro metabolic stability given as calculated maximal oral bioavailability
Can you tell me Human liver microsome Fmax for the items I'm about to list?
Record the value in %, omitting the unit from your answer.

Quick check: Human liver microsome Fmax of Cc1cnc(-c2cc(OC(C)C(C)O)cc(C(=O)N[C@H](C)c3cnc(C(F)(F)F)nc3)c2)s1 (single isomer, unassigned) [Example 340] ?
90

Quick check: Human liver microsome Fmax of Cc1cnc(-c2cc(OC(C)C(C)O)cc(C(=O)N[C@H](C)c3cnc(C(F)(F)F)nc3)c2)s1 (single isomer, unassigned) [Example 163] ?
100

Quick check: Human liver microsome Fmax of CCc1cnc(-c2cc(OC[C@H]3CN(C)CCO3)cc(C(=O)N[C@H](C)c3ccc(C(F)(F)F)nn3)c2)s1 [Example 419] ?
74

Quick check: Human liver microsome Fmax of Cc1cnc(-c2cc(OC(C)C(C)O)cc(C(=O)N[C@H](C)c3ccc(C(F)(F)F)nn3)c2)s1 (single isomer, unassigned) [Example 183] ?
74

Quick check: Human liver microsome Fmax of Cc1cnc(-c2cc(OC(C)C(C)O)cc(C(=O)N[C@H](C)c3cnc(C(F)(F)F)nc3)c2)s1 (single isomer, unassigned) [Example 339] ?
94

Quick check: Human liver microsome Fmax of Cc1cnc(-c2cc(O[C@@H]3CCOC3)cc(C(=O)N[C@H](C)c3cnc(C(F)(F)F)nc3)c2)s1 [Example 11] ?
57

Quick check: Human liver microsome Fmax of Cc1cnc(-c2cc(O[C@H]3CCOC3)cc(C(=O)N[C@H](C)c3cnc(C(F)(F)F)nc3)c2)s1 [Example 26] ?
67
